Entries and their Hepatotoxicity (steatosis)
- test context: human;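 further: steatosis confirmed by histopathology, value is the count of indexed references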
measurement name: Hepatotoxicity (steatosis)

>>> endpoint_result("CCOC(=O)CN[C@@H](C(=O)N1CC[C@H]1C(=O)NCc1ccc(/C(N)=N\\O)cc1)C1CCCCC1")
0
>>> endpoint_result("CCC(Cc1cnc2nc(N)nc(N)c2n1)c1ccc(C(=O)N[C@@H](CCC(=O)O)C(=O)O)cc1 (stereo not given in full) [EDATREXATE]")
0
>>> endpoint_result("CN(C)CCN1C(=O)c2cccc3cc(N)cc(c23)C1=O [AMONAFIDE]")
0
>>> endpoint_result("CN1C(C(=O)Nc2ccccn2)=C(O)c2sccc2S1(=O)=O")
0
>>> endpoint_result("CC(C)NCC(O)COc1ccc(CC(N)=O)cc1 (stereo not given)")
1
